- Test system: SF-539 CNS
- assay notes: NCI-60 one-dose screen, 48 h
- condition description: 10 µM unless noted
About 83,000 compounds went through this panel and 20% of them were active in at least one assay; those are over-represented in the sample as a whole. The source made the active and inactive calls. The calls were made as follows: active = growth percent below 10; inactive = the rest.
Just give me one of these, please: active, inactive

For orientation, consider the following solved cases.
NC(N)=N/N=C(/c1ccccc1)c1ccc(F)cc1 = active
O=C(Nc1ccc(Cl)cc1)c1cc2cc(F)ccc2cc1O = inactive
Cc1cc(N2CCN(c3ccnc4cc(Cl)ccc34)CC2)nc(N2CCOCC2)n1 = inactive
C=CC(=O)Nc1cccc(Nc2nc(SC)nc(-c3cccc([N+](=O)[O-])c3)c2C#N)c1 = inactive
CSc1nc(Nc2cccc(NC(=O)/C(C#N)=C/c3c(Cl)cccc3Cl)c2)c(C#N)c(-c2cccc([N+](=O)[O-])c2)n1 = inactive

Ask: Please state the recorded outcome for this molecule: "CCCCC[C@H]1C/C=C2/C(=O)C=C[C@@H]2C/C=C\CCCC(=O)O1"
Reply: active

Ask: Please let me know the test result on file for "C=C(C)[C@@H]1CC[C@]2(C(N)=O)CC[C@]3(C)[C@H](CC[C@@H]4[C@@]5(C)C/C(=C/c6ccco6)C(=O)C(C)(C)[C@@H]5CC[C@]43C)[C@@H]12" .
Reply: inactive

----------
- Test system: SK-MEL-28 melanoma
- assay notes: NCI-60 one-dose screen, 48 h (100 = growth as untreated, 0 = no growth, -100 = all killed)
- condition description: 10 µM unless noted
About 83,000 compounds went through this panel and 20% of them were active in at least one assay; those are over-represented in the sample as a whole. Active and inactive are the calls of the source. Rule for the calls: active = growth percent below 10; inactive = the rest.
Recorded growth, one value per entry.

Cc1cc(N2CCCCCC2)nc(NC2CCCC(Nc3ccnc4cc(Cl)ccc34)C2)n1 (configuration not stated) = -83.5% (active)
Cn1cc(C(=O)c2nc(-c3c[nH]c4ccc(F)cc34)no2)c2cc(F)ccc21 = 103% (inactive)
CSc1ccc(-c2ccccc(=O)c2O)cc1 = 26.9% (inactive)
COc1ccc(-n2nc(C)c3c(Oc4ccc(NC(=O)Nc5c(Cl)cccc5Cl)cc4)ncnc32)cc1 = 106% (inactive)

Ask: Report growth for "N#CCCN=Nc1c(O)[nH]c2ccc([N+](=O)[O-])cc12" please.
Reply: 112% (inactive)

Ask: Please look up its growth: Cc1cc(N2CCN(C)CC2)nc(NC2CCCC(Nc3ccnc4cc(Cl)ccc34)C2)n1 (configuration not stated)
Reply: -75.8% (active)

Ask: Recorded growth of "COc1ccc2c(c1)c(-c1nonc1-c1cn(C)c3ccccc13)cn2C" , please.
Reply: 63.1% (inactive)

Ask: Find the recorded growth belonging to OCC(O)c1nc2ccc3[nH]ncc3c2c2c1CCCC2 (configuration not stated) and report it.
Reply: -3.58% (active)

Ask: Which value of growth has been reported for "O=C1c2ccccc2C(=O)c2c(N=Nc3[nH]c(=S)[nH]c3O)cccc21" in the records?
Reply: 52% (inactive)

Ask: Fill blank: measured growth of the compound CCCCCCN(CCCCCC)CCC(O)c1ccc2ccccc2c1 (configuration not stated) is ____.
Reply: 88.1% (inactive)

Ask: So what does the record say about growth for "O=C1c2cc3c(cc2-c2c1c1ccc(F)cc1c(=O)n2C[C@H](O)[C@@H](O)[C@H](O)CO)OCO3" ?
Reply: -37.6% (active)

Ask: Entry "Oc1cccc(-c2nc(N3CCOCC3)c3c4c(sc3n2)CCCC4)c1" : reported growth = ?
Reply: 57.8% (inactive)

Ask: Quick one: growth for "O=C1CC[C@H](c2ccc(O)c3c2C(=O)[C@@H]2O[C@@H]2C3=O)c2cccc(O)c21" ?
Reply: -7.72% (active)

Ask: Fill in: growth of "O=C1NC(=S)N[C@H]1CC(=O)n1cnc2ccccc21" is ___
Reply: 111% (inactive)

Ask: Reported growth for "N#Cc1nnn(-c2ccc(S(N)(=O)=O)cc2)c1NC(=O)CCl" : what is it?
Reply: 104% (inactive)

Ask: Fill in the blank: the reported growth of "CCOC(=O)n1cc(-c2nonc2-c2cn(C)c3ncccc23)c2ccccc21" is ____.
Reply: 104% (inactive)

Ask: Look up growth for this compound: "O=C(O)c1c(=O)cccc2ssc12"
Reply: 10.8% (inactive)

Ask: Give its growth value. Item: "COc1ccc(-c2cc(C(=O)N=Nc3c(O)[nH]c4ccc(Br)cc34)no2)cc1"
Reply: 113% (inactive)

Ask: Which growth is listed for "Cc1cc(C)nc(SC2=C(Nc3cccc(Cl)c3)C(=O)N(Cc3ccccc3)C2=O)n1" ?
Reply: 93.2% [30 µM] (inactive)

Ask: If you can, please state the reported growth value of "O=Nc1c(O)c(Cl)cc2ccccc12" .
Reply: 92.1% (inactive)

Ask: Quick one: growth for "O=c1ccccc(-c2ccc(-c3ccco3)cc2)c1O" ?
Reply: 30.7% (inactive)

Ask: Returns the measured growth for the input compound. Input: "COc1cccc(/C=C2\Oc3cc(OCCN4CCCC4)ccc3C2=O)c1"
Reply: 102% (inactive)

Ask: State the recorded growth for this entry: CC1C(/C=N/Nc2ccccc2)C(C#N)(C#N)C1(C#N)C#N (configuration not stated)
Reply: 100% (inactive)

Ask: Reported growth, compound "O=C(N(c1ccccc1)c1ccccc1)n1ccc2nc(Cl)nc(Cl)c21" : ____
Reply: 80.4% (inactive)

Ask: Report growth for "Cc1ccc(NC(=O)/C=C/c2ccccc2)c(C(N)=O)c1" please.
Reply: 33.1% (inactive)

Ask: Item under review: "CC(C)(C)c1cc(/C=N\NC(=O)/C=C/C=C/c2ccc3c(c2)OCO3)c(O)c(C(C)(C)C)c1" . Reported growth?
Reply: 85.8% (inactive)

Ask: Entry under review: "CC(C)c1c(C(=O)c2ccccc2)c(-c2ccccc2)c(-c2ccc(F)cc2)n1CC[C@@H](O)C[C@@H](O)CC(=O)O" . Reported growth?
Reply: 65.4% (inactive)

Ask: What measured growth goes with Nc1n[nH]c2cc(F)c([C@@H]3Nc4ccc5[nH]ncc5c4[C@H]4C5CCC(C5)[C@@H]34)cc12 (some centres not stated) ?
Reply: 65.8% (inactive)

Ask: Look up growth: "C=CC(=O)Nc1cccc(-c2nc(SC)nc(Nc3ccccc3OC)c2C#N)c1"
Reply: 50.8% (inactive)

Ask: Recorded growth for "O=C1CSC(=S)N1CCc1ccc(O)cc1" , please?
Reply: 101% (inactive)

Ask: Looking for the measured growth of COc1ccc(/C=N/C2=C(C#N)C(c3ccc(N(C)C)cc3)c3ccc4ccccc4c3O2)cc1 (configuration not stated) , can you help?
Reply: 74.4% (inactive)

Ask: Record request: growth value, item "CCOc1nc(-c2ccccc2)cc2c(O)c(C(=O)N/N=C/c3ccc(O)cc3O)[nH]c(=O)c12"
Reply: 60% (inactive)
